Tested on: HCV infectious virus J399EM
Test: Anti-HCV assay in authentic HCV infection/replication system (J399EM EGFP reporter virus) in Huh7.5.1 cells
Type: cell-based, hepatitis C virus (JFH1-derived, genotype 2a)
Conditions: ratio of CC50 to EC50, Huh7.5.1 cells
Method: The inhibition of HCV by all synthesized quercetin derivatives was evaluated following a previously reported procedure. […] The cytotoxicity effect of the test compounds was also evaluated in the same cell line by MTT method. […] The stability of quercetin-3-O-ester compounds were also tested in the same buffer as the antiviral activity assay at 37 °C and the hydrolysate was measured by HPLC. […]
measurementLabel: SI (selectivity index)

The cases that follow already have their SI (selectivity index) on record.
- compound: "N#Cc1ccc(C(=O)Oc2c(-c3ccc(O)c(O)c3)oc3cc(O)cc(O)c3c2=O)cc1 [Compound 4n]"
  SI (selectivity index): ">4.4"
- compound: "O=C(Oc1c(-c2ccc(O)c(O)c2)oc2cc(O)cc(O)c2c1=O)c1ccccc1F [Compound 4b]"
  SI (selectivity index): ">3.9"

Proceeding to the next compound to report its SI (selectivity index).
stdin: Returns the measured SI (selectivity index) for the input compound. Input: Nc1ccccc1C(=O)Oc1c(-c2ccc(O)c(O)c2)oc2cc(O)cc(O)c2c1=O [Compound 4c]
stdout: >3.9

###

Parameter CC50: see the listing below.
assay: Cell viability / cytotoxicity by MTT method; type: cell-based; settings: human
All answers are understood in µM, so give the number only.

The cases that follow already have their CC50 on record.
- smilesInput: "O=c1c(O)c(-c2ccc(O)c(O)c2)oc2cc(OCc3ccccc3F)cc(O)c12"
  measurementLabel: "CC50"
  measurementUnit: "µM"
  resultNumber: 15.4
- smilesInput: "O=C(Oc1c(-c2ccc(O)c(O)c2)oc2cc(O)cc(O)c2c1=O)c1ccc(F)cc1"
  measurementLabel: "CC50"
  measurementUnit: "µM"
  resultNumber: 35

Proceeding to the next molecule to report its CC50.
stdin: Returns the measured CC50 for the input molecule. Input: O=c1c(O)c(-c2ccc(O)c(O)c2)oc2cc(OCc3ccc(Br)cc3)cc(O)c12
stdout: 35.4
